- Tested on: Ixodes ricinus
- ASSAY NOTES: Oral acaricidal test on ticks in membrane feeding wells with treated blood
- Type: in vivo
- CONDITION LABEL: Ixodes ricinus, po; adult ticks, 100 ppm, 6 h; read-out: average percentage of adult tick mortality (moribund or dead adult ticks)
Where a name gives a salt, the structure may show the parent alone.
Catalogue of compounds with associated mortality at 100 ppm
Provide the reading as a plain figure in %.

* Cc1ccc(/N=C/N(C)/C=N/c2ccc(C)cc2C)c(C)c1 | 10.1
* Cc1cccc(C(C)c2cnc[nH]2)c1C (racemic) [Medetomidine hydrochloride] | 12.5
* Cc1cccc([C@H](C)c2c[nH]cn2)c1C [Dexmedetomidine hydrochloride] | 5.9

Next item in the queue.
Lookup result for Cc1cccc(Cc2cnc[nH]2)c1C [Detomidine hydrochloride] ; measured mortality at 100 ppm: 8.8

* * *

- Test system: Ixodes ricinus
- ASSAY NOTES: Oral acaricidal test on ticks in membrane feeding wells with treated blood
- Type: in vivo
- CONDITION LABEL: Ixodes ricinus, po; nymphs, 100 ppm, 3 h; read-out: average percentage of mortality of tick nymphs (moribund or dead nymphs)
Structures can show the parent of a compound that is named as a salt.
OBSERVED PROPERTY: mortality at 100 ppm
Your answer should be a number followed by the unit of measure.

Example results:
* Cc1ccc(/N=C/N(C)/C=N/c2ccc(C)cc2C)c(C)c1 | 14%
* Cc1cccc([C@H](C)c2c[nH]cn2)c1C [Dexmedetomidine hydrochloride] | 13.3%
* Cc1cccc(C(C)c2cnc[nH]2)c1C (racemic) [Medetomidine hydrochloride] | 9.1%

// moving on: another record for mortality at 100 ppm
Per the records, this compound ( Cc1cccc(Cc2cnc[nH]2)c1C [Detomidine hydrochloride] ) has mortality at 100 ppm equal to 9.4%

* * *

- Tested on: Rhipicephalus sanguineus
- ASSAY NOTES: Topical acaricidal test on brown dog ticks
- Type: in vivo
- CONDITION LABEL: 168 h, 10 ppm topical, 0.5 μl per tick, after 7 days of treatment
- Experimental: Brown dog ticks, Rhipicephalus sanguineus, of 2nd stage, from a single cohort were used. Three (3) compounds were tested, as well as a reference compound (Amitraze). For each compound tested and Amitraz, four doses (1000, 100, 10 and 1 ppm) were applied to the ticks topically. A negative control (acetone) and an untreated group were included for comparison. […] The averages in percentage of each evaluation category (healthy, knocked down and dead) were calculated, as well as the standard error. […]
Structures can show the parent of a compound that is named as a salt.
OBSERVED PROPERTY: mortality at 10 ppm (%)
All answers are understood in %, so give the number only.

• Cc1cccc(Cc2cnc[nH]2)c1C [Detomidine hydrochloride] = 23.3
• Cc1ccc(/N=C/N(C)/C=N/c2ccc(C)cc2C)c(C)c1 [Amitraz] = 46.7
• Cc1cccc(C(C)c2cnc[nH]2)c1C (racemic) [Medetomidine hydrochloride] = 66.7

Now turn to the next molecule.
Entry Cc1cccc([C@H](C)c2c[nH]cn2)c1C [Dexmedetomidine hydrochloride] ; mortality at 10 ppm = 93.3

* * *

- Test system: Ixodes ricinus
- ASSAY NOTES: Oral acaricidal test on ticks in membrane feeding wells with treated blood
- Assay type: in vivo
- CONDITION LABEL: Ixodes ricinus, po; nymphs, 100 ppm, 6 h; read-out: average percentage of mortality of tick nymphs (moribund or dead nymphs)
Where a name gives a salt, the structure may show the parent alone.
OBSERVED PROPERTY: mortality at 100 ppm (%)
Give a bare numeral; the unit % is implied.

The compound identified as Cc1ccc(/N=C/N(C)/C=N/c2ccc(C)cc2C)c(C)c1 [Amitraz] registered its mortality at 100 ppm at 38.7

According to the records, this compound Cc1cccc([C@H](C)c2c[nH]cn2)c1C [Dexmedetomidine hydrochloride] displays mortality at 100 ppm of 33

Record Cc1cccc(Cc2cnc[nH]2)c1C [Detomidine hydrochloride] . Reported mortality at 100 ppm: 45.3

Value of mortality at 100 ppm reported for the compound Cc1cccc(C(C)c2cnc[nH]2)c1C (racemic) [Medetomidine hydrochloride] is 38.5
